Data origin, for the record: patent US20140154255A1

In this section, each of the binders is paired with its reported kon.
- measuredOn: T1, human VEGF-A residues 27-191 of Accession #AAV38412 (human, UniProt P15692 27-191)
- T1 construct: range 27-191
- assayOverview: BIAcore SPR
Give the quantity in M⁻¹ s⁻¹, number only.

binder	unitSpec	kon
N31 L (anti-VEGF IgG) (antibody, V domains shown, copies: 2 + 2) VH: EVQLVESGGGLVQPGGSLRLSCAASGYTFTLYGMNWVRQAPGKGLEWVGWINTYTGEPTYAADFKRRFTFSLDTSKSTAYLQMNSLRAEDTAVYYCAKYPHYYGSSHWYFDVWGQGTLVTVSS VL: DIQMTQSPSSLSASVGDRVTITCSASQDISNYLNWYQQKPGKAPKVLIYFTSSLHSGVPSRFSGSGSGTDFTLTISSLQPEDFATYYCQQYSTVPWTFGQGTKVEIK	M⁻¹ s⁻¹	218000
N31 W (anti-VEGF IgG) (antibody, V domains shown, copies: 2 + 2) VH: EVQLVESGGGLVQPGGSLRLSCAASGYTFTWYGMNWVRQAPGKGLEWVGWINTYTGEPTYAADFKRRFTFSLDTSKSTAYLQMNSLRAEDTAVYYCAKYPHYYGSSHWYFDVWGQGTLVTVSS VL: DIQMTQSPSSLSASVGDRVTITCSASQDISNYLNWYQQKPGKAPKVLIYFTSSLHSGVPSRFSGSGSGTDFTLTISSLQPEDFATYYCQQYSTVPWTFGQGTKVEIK	M⁻¹ s⁻¹	209000

Then this binder:
Item under review: S100a G (anti-VEGF IgG) (antibody, V domains shown, copies: 2 + 2) VH: EVQLVESGGGLVQPGGSLRLSCAASGYTFTNYGMNWVRQAPGKGLEWVGWINTYTGEPTYAADFKRRFTFSLDTSKSTAYLQMNSLRAEDTAVYYCAKYPHYYGGSHWYFDVWGQGTLVTVSS VL: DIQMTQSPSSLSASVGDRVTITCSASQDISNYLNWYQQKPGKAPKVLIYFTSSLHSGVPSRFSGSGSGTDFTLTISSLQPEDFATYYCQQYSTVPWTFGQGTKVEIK . Reported kon?
221000
